Recorded values, source patent US4875922A.

Please go through the items and note down their I = Interligular or internodal length reduction.
system: Barley; assay: Whole plant screen for plant growth regulator activity, barley (BR); format: in vivo, Barley (Atem); settings: BR, 4000 ppm (4 kg/ha), visual score after 2-6 weeks

GET /values?readout=I = Interligular or internodal length reduction&item= CCCC#CC(O)(c1cncnc1)C(C)(C)C (stereo not drawn) [Compound 14] 3 (61-100%)

GET /values?readout=I = Interligular or internodal length reduction&item= CCCCC#CC(O)(c1cncnc1)C(C)C (stereo not drawn) [Compound 1] 3 (61-100%)

GET /values?readout=I = Interligular or internodal length reduction&item= CCC(C)C#CC(O)(c1cncnc1)C(C)C (stereo not drawn) [Compound 5] 3 (61-100%)

GET /values?readout=I = Interligular or internodal length reduction&item= CCCCCC(O)(c1cncnc1)C(C)(C)C (stereo not drawn) [Compound 15] 2 (31-60%)

GET /values?readout=I = Interligular or internodal length reduction&item= CCC/C=C\C(O)(c1cncnc1)C(C)C (stereo not drawn) [Compound 25] 3 (61-100%)

GET /values?readout=I = Interligular or internodal length reduction&item= CC(C)CC#CC(O)(c1cncnc1)C1CC1 (stereo not drawn) [Compound 56] 3 (61-100%)

GET /values?readout=I = Interligular or internodal length reduction&item= CCCC#CC(O)(c1cncnc1)C(C)C (stereo not drawn) [Compound 2] 3 (61-100%)

GET /values?readout=I = Interligular or internodal length reduction&item= CCC(C)CCC(O)(c1cncnc1)C(C)C (stereo not drawn) [Compound 6] 3 (61-100%)

GET /values?readout=I = Interligular or internodal length reduction&item= CCCCCC(O)(c1cncnc1)C(C)C (stereo not drawn) [Compound 3] 3 (61-100%)

GET /values?readout=I = Interligular or internodal length reduction&item= CC(C)C#CC(O)(c1cncnc1)C(C)C (stereo not drawn) [Compound 9] 3 (61-100%)

GET /values?readout=I = Interligular or internodal length reduction&item= CCCCCC#CC(O)(c1cncnc1)C(C)C (stereo not drawn) [Compound 23] 3 (61-100%)

GET /values?readout=I = Interligular or internodal length reduction&item= CC(C)(C)C(O)(C#CCCCCCl)c1cncnc1 (stereo not drawn) [Compound 37] 3 (61-100%)

GET /values?readout=I = Interligular or internodal length reduction&item= CCCCCCC#CC(O)(c1cncnc1)C(C)C (stereo not drawn) [Compound 24] 2 (31-60%)

GET /values?readout=I = Interligular or internodal length reduction&item= CCC(C)CCCC(O)(c1cncnc1)C(C)C (stereo not drawn) [Compound 21] 3 (61-100%)

GET /values?readout=I = Interligular or internodal length reduction&item= CCCCCCC(O)(c1cncnc1)C(C)(C)C (stereo not drawn) [Compound 30] 3 (61-100%)

GET /values?readout=I = Interligular or internodal length reduction&item= CC(C)CCCC(O)(c1cncnc1)C(C)C (stereo not drawn) [Compound 7] 2 (31-60%)

GET /values?readout=I = Interligular or internodal length reduction&item= CC(C)C(O)(C#CC(C)(C)C)c1cncnc1 (stereo not drawn) [Compound 10] 3 (61-100%)

GET /values?readout=I = Interligular or internodal length reduction&item= CC(C)C(O)(CCC(C)(C)C)c1cncnc1 (stereo not drawn) [Compound 20] 2 (31-60%)

GET /values?readout=I = Interligular or internodal length reduction&item= CCC(Cl)CC#CC(O)(c1cncnc1)C(C)(C)C (stereo not drawn) [Compound 38] 3 (61-100%)

GET /values?readout=I = Interligular or internodal length reduction&item= CC(C)CCC(O)(c1cncnc1)C(C)C (stereo not drawn) [Compound 13] 3 (61-100%)

GET /values?readout=I = Interligular or internodal length reduction&item= CC(C)CCCC(O)(c1cncnc1)C(C)(C)C (stereo not drawn) [Compound 17] 3 (61-100%)

* * *

test system: Wheat; experiment: Whole plant screen for plant growth regulator activity, wheat (WW); type: in vivo, Wheat (Timmo); conditions: WW, 4000 ppm (4 kg/ha), visual score after 2-6 weeks
Property Measured: R = Retardation

GET /values?readout=R = Retardation&item= CCCCCC#CC(O)(c1cncnc1)C(C)C (centres unmarked) 2 (31-60%)

GET /values?readout=R = Retardation&item= CC(C)CCCCC(O)(c1cncnc1)C(C)C (centres unmarked) 2 (31-60%)

GET /values?readout=R = Retardation&item= CC(C)(C)C(O)(C#CCCCl)c1cncnc1 (centres unmarked) 2 (31-60%)

GET /values?readout=R = Retardation&item= CC(C)(C)/C=C/C(O)(c1cncnc1)C(C)(C)CF (centres unmarked) 2 (31-60%)

GET /values?readout=R = Retardation&item= CC(C)CCC#CC(O)(c1cncnc1)C(C)C (centres unmarked) 2 (31-60%)

GET /values?readout=R = Retardation&item= CC(C)CCC(O)(c1cncnc1)C(C)C (centres unmarked) 2 (31-60%)

GET /values?readout=R = Retardation&item= CCC/C=C\C(O)(c1cncnc1)C(C)C (centres unmarked) 1 (10-30%)

GET /values?readout=R = Retardation&item= CCC(C)C#CC(O)(c1cncnc1)C(C)C (centres unmarked) 3 (61-100%)

GET /values?readout=R = Retardation&item= CCCCCC(O)(c1cncnc1)C(C)C (centres unmarked) 3 (61-100%)

GET /values?readout=R = Retardation&item= CC(C)CCCC(O)(c1cncnc1)C(C)(C)C (centres unmarked) 2 (31-60%)

GET /values?readout=R = Retardation&item= CC(C)C(O)(C#CCCCCl)c1cncnc1 (centres unmarked) 3 (61-100%)

* * *

tested on: Tomato; assay: Whole plant screen for plant growth regulator activity, tomato (TO); format: in vivo, Tomato (Ailsa Craig); settings: 4000 ppm (4 kg/ha), visual score after 2-6 weeks
Please go through the items and note down their R = Retardation.

GET /values?readout=R = Retardation&item= CC(C)CC#CC(O)(c1cncnc1)C1CC1 (stereo not drawn) 1 (10-30%)

GET /values?readout=R = Retardation&item= CCCCC#CC(O)(c1cncnc1)C(C)(C)C (stereo not drawn) 3 (61-100%)

GET /values?readout=R = Retardation&item= CC(C)CCCCC(O)(c1cncnc1)C(C)C (stereo not drawn) 2 (31-60%)

GET /values?readout=R = Retardation&item= CCCCC(O)(c1cncnc1)C(C)(C)C (stereo not drawn) 2 (31-60%)

GET /values?readout=R = Retardation&item= CCCCCC#CC(O)(c1cncnc1)C(C)C (stereo not drawn) 2 (31-60%)

GET /values?readout=R = Retardation&item= CC(C)C(O)(CCC(C)(C)C)c1cncnc1 (stereo not drawn) 3 (61-100%)

* * *

Please go through the items and note down their T = Tillering or side shooting.
tested on: Barley; experiment: Whole plant screen for plant growth regulator activity, barley (BR); type: in vivo, Barley (Atem); conditions: BR, 4000 ppm (4 kg/ha), visual score after 2-6 weeks; * = decrease in tillering

GET /values?readout=T = Tillering or side shooting&item= CCCC#CC(O)(c1cncnc1)C(C)(C)C (stereo not shown) 3 (61-100%)

GET /values?readout=T = Tillering or side shooting&item= CCCCCC(O)(c1cncnc1)C(C)C (stereo not shown) 3 (61-100%)

GET /values?readout=T = Tillering or side shooting&item= CC(C)(C)/C=C/C(O)(c1cncnc1)C1(C)CC1 (stereo not shown) 3 (61-100%)

GET /values?readout=T = Tillering or side shooting&item= CCC(C)CCCC(O)(c1cncnc1)C(C)C (stereo not shown) 3 (61-100%)

GET /values?readout=T = Tillering or side shooting&item= CCCCCC#CC(O)(c1cncnc1)C(C)(C)C (stereo not shown) 1 (10-30%)

GET /values?readout=T = Tillering or side shooting&item= CCCCCCC#CC(O)(c1cncnc1)C(C)C (stereo not shown) 2*

GET /values?readout=T = Tillering or side shooting&item= CC(C)CCC(O)(c1cncnc1)C(C)(C)C (stereo not shown) 2 (31-60%)

GET /values?readout=T = Tillering or side shooting&item= CC(C)C#CC(O)(c1cncnc1)C(C)(C)C (stereo not shown) 3 (61-100%)

GET /values?readout=T = Tillering or side shooting&item= CC(C)CCC#CC(O)(c1cncnc1)C(C)C (stereo not shown) 3 (61-100%)

GET /values?readout=T = Tillering or side shooting&item= CC(C)CCC(O)(c1cncnc1)C(C)C (stereo not shown) 2 (31-60%)

* * *

system: Rice; test: Intermediate Retardant Test, rice; format: in vivo, Rice (Ishikari); settings: Oryza sativa, 672 h, 500 ppm, overall spray, approximately 28 days, Table VI; read-out: Percentage Reduction in Height of Rice (Compared to formulation blank)
Output t for Percent reduction in rice height vs formulation blank at 500 ppm not less than 20%; output f otherwise.

# check: Percent reduction in rice height vs formulation blank at 500 ppm of CCCC#CC(O)(c1cncnc1)C(C)(C)C (stereo not drawn) [Compound 14] is greater than or equal to 20% t

# check: Percent reduction in rice height vs formulation blank at 500 ppm of CC(C)C(O)(C#CCCCCl)c1cncnc1 (stereo not drawn) [Compound 8] is greater than or equal to 20% t

# check: Percent reduction in rice height vs formulation blank at 500 ppm of CCCC#CC(O)(c1cncnc1)C(C)C (stereo not drawn) [Compound 2] is greater than or equal to 20% f

# check: Percent reduction in rice height vs formulation blank at 500 ppm of CCC(C)C#CC(O)(c1cncnc1)C(C)C (stereo not drawn) [Compound 5] is greater than or equal to 20% t

# check: Percent reduction in rice height vs formulation blank at 500 ppm of CCCCCC(O)(c1cncnc1)C(C)(C)C (stereo not drawn) [Compound 15] is greater than or equal to 20% f

# check: Percent reduction in rice height vs formulation blank at 500 ppm of CC(C)CCC#CC(O)(c1cncnc1)C(C)C (stereo not drawn) [Compound 12] is greater than or equal to 20% f

# check: Percent reduction in rice height vs formulation blank at 500 ppm of CCC(C)CCC(O)(c1cncnc1)C(C)C (stereo not drawn) [Compound 6] is greater than or equal to 20% t

# check: Percent reduction in rice height vs formulation blank at 500 ppm of CCC(C)CC#CC(O)(c1cncnc1)C(C)C (stereo not drawn) [Compound 11] is greater than or equal to 20% f

# check: Percent reduction in rice height vs formulation blank at 500 ppm of CC(C)C(O)(C#CC(C)(C)C)c1cncnc1 (stereo not drawn) [Compound 10] is greater than or equal to 20% f

# check: Percent reduction in rice height vs formulation blank at 500 ppm of CCCCCC(O)(c1cncnc1)C(C)C (stereo not drawn) [Compound 3] is greater than or equal to 20% f

# check: Percent reduction in rice height vs formulation blank at 500 ppm of CC(C)C#CC(O)(c1cncnc1)C(C)C (stereo not drawn) [Compound 9] is greater than or equal to 20% f

# check: Percent reduction in rice height vs formulation blank at 500 ppm of CC(C)CCC(O)(c1cncnc1)C(C)C (stereo not drawn) [Compound 13] is greater than or equal to 20% f
